B1: DLC1 (parent)
chain: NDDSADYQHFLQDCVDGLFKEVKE

- Variants of: B1
- runDescription: protein stability index of a GFP-peptide fusion (GPS, HEK-293T) (PSI 1-6); higher = more stable;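 note: lentivirally expressed fusions sorted by FACS into six bins by GFP to DsRed ratio, PSI derived from sequencing read proportions per bin multiplied by bin number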
- assaySetup: c terminus: a fixed tail appended
Classify as follows. Reported protein stability index greater than or equal to 4: satisfied. Reported protein stability index below: not satisfied.

Past entries and their recorded results:
mutationId | assignedLabel
V15K | satisfied
C14Q | satisfied

input: Kindly determine if protein stability index recorded for `E21F` is above or exactly 4.
output: not satisfied

input: Moving on to `Q12W`
output: not satisfied

input: Same thing, different variant: `D13F`
output: not satisfied

The measurements presented in this section are drawn from the supplement of paper PMC10567573.
